System: Raji
Test: Inhibition of EBV-early antigen activation in human Raji cells assessed as early antigen activation at 1 uM ratio after 48 hrs
Assay type: cell-based
Design: scale not given: the % may be the effect or the level left
measurement-kind: Activity (%)
Numbers only, in %.

{"columns": ["compound", "Activity, %"],
 "data": [
  ["CC(=O)O[C@H]1CC[C@]2(C)[C@H]3CC=C4[C@@H]5CC(C)(C)CC[C@]5(C(=O)O)CC[C@@]4(C)[C@]3(C)CC[C@H]2C1(C)C", 1.6],
  ["C=C(C)[C@@H]1CC[C@]2(C)CC[C@]3(C)[C@H](CC[C@@H]4[C@@]5(C)CC[C@H](OC(C)=O)C(C)(C)[C@@H]5CC[C@]43C)[C@@H]12 [LUPENYL ACETATE]", 0],
  ["C=C(C)[C@@H]1CC[C@]2(C(=O)O)CC[C@]3(C)[C@H](CC[C@@H]4[C@@]5(C)CC[C@H](O)C(C)(C)[C@@H]5CC[C@]43C)[C@@H]12", 0]
]}

I'm hoping you can list Activity for every compound here, please.
1. CC1(C)CC[C@]2(C(=O)O)CC[C@]3(C)C(=CC[C@@H]4[C@@]5(C)CC[C@H](O)C(C)(C)[C@@H]5CC[C@]43C)[C@@H]2C1
2. C=C(C)[C@@H]1CC[C@]2(C(=O)O)CC[C@]3(C)[C@H](CC[C@@H]4[C@@]5(C)CC[C@H](OC(C)=O)C(C)(C)[C@@H]5CC[C@]43C)[C@@H]12
3. C=C(C)[C@@H]1CC[C@]2(CO)CC[C@]3(C)[C@H](CC[C@@H]4[C@@]5(C)CC[C@H](O)C(C)(C)[C@@H]5CC[C@]43C)[C@@H]12
4. C=C(C)[C@@H]1CC[C@]2(C(=O)OC)CC[C@]3(C)[C@H](CC[C@@H]4[C@@]5(C)CC[C@H](O)C(C)(C)[C@@H]5CC[C@]43C)[C@@H]12 [METHYL BETULINATE]
5. CC1(C)CC[C@]2(C)CC[C@]3(C)C(=CC[C@@H]4[C@@]5(C)C(=O)CC(=O)C(C)(C)[C@@H]5CC[C@]43C)[C@@H]2C1
6. COC(=O)[C@]12CCC(C)(C)C[C@H]1C1=CC[C@@H]3[C@@]4(C)C[C@@H](O)[C@H](O)C(C)(C)[C@@H]4CC[C@@]3(C)[C@]1(C)CC2
7. CC1(C)CC[C@]2(C(=O)O)CC[C@]3(C)C(=CC[C@@H]4[C@@]5(C)C[C@@H](O)[C@H](O)C(C)(C)[C@@H]5CC[C@]43C)[C@@H]2C1
8. CC(=O)O[C@@H]1C[C@]2(C)[C@H]3CC=C4[C@@H]5CC(C)(C)CC[C@]5(C(=O)O)CC[C@@]4(C)[C@]3(C)CC[C@H]2C(C)(C)[C@H]1OC(C)=O

[2.3, 0, 1.6, 0, 0, 0, 0, 0]

====

Task for the reader: assign each of the following compounds its reported viability at 48 h, 100 mol ratio relative to TPA.
Test: Cytotoxicity against human Raji cells assessed as cell viability at 100 mol ratio after 48 hrs relative to TPA
Type: cell-based
Conditions: read-out: Activity

I'm hoping you can list viability at 48 h, 100 mol ratio relative to TPA for every compound here, please.
1. CC(=O)O[C@H]1CC[C@]2(C)[C@H]3CC=C4[C@@H]5CC(C)(C)CC[C@]5(C=O)CC[C@@]4(C)[C@]3(C)CC[C@H]2C1(C)C
2. C=C(C)[C@@H]1CC[C@]2(C(=O)OC)CC[C@]3(C)[C@H](CC[C@@H]4[C@@]5(C)CC[C@H](O)C(C)(C)[C@@H]5CC[C@]43C)[C@@H]12 [METHYL BETULINATE]

1. 100%
2. 100%

I'm hoping you can list viability at 48 h, 100 mol ratio relative to TPA for every compound here, please.
1. CC1(C)CC[C@]2(CO)CC[C@]3(C)C(=CC[C@@H]4[C@@]5(C)CC[C@H](O)C(C)(C)[C@@H]5CC[C@]43C)[C@@H]2C1 [ERYTHRODIOL]
2. CC1(C)CC[C@]2(C)CC[C@]3(C)C(=CC[C@@H]4[C@@]5(C)C(=O)CC(=O)C(C)(C)[C@@H]5CC[C@]43C)[C@@H]2C1
3. CC(=O)O[C@H]1CC[C@]2(C)[C@H]3CC=C4[C@@H]5CC(C)(C)CC[C@]5(CO)CC[C@@]4(C)[C@]3(C)CC[C@H]2C1(C)C

> 80%
100%
> 80%
